- Experimental Target: Adenosine receptor A2b (Homo sapiens, UniProt P29275)
- Sequence (P29275 whole entry): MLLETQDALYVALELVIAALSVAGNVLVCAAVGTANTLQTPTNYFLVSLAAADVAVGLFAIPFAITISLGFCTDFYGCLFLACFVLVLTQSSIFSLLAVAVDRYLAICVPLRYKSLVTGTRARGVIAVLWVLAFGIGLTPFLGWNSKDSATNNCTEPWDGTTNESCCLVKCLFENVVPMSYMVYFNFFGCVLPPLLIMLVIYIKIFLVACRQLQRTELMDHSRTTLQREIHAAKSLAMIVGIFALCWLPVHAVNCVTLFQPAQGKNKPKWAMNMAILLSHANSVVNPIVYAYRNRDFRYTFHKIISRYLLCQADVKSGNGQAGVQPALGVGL
pKi: −log10 of the molar value.
Measurement Kind: pKi

Here are 5 compounds together with their reported answers.
> print(dat)
                                smiles.repr                       experimental.target   val
1  CCCn1c(=O)c2nc(-c3cnn(Cc4ccc(F)c(F)c4)c3)[nH]c2n(CCC)c1=O  Adenosine receptor A2b (Homo sapiens, UniProt P29275)  7.46
2  CCCn1c(=O)c2[nH]c(-c3cnn(Cc4ccc(OC)cc4)c3)nc2n(CCC)c1=O  Adenosine receptor A2b (Homo sapiens, UniProt P29275)  7.43
3  CCCn1c(=O)c2nc(-c3cnn(Cc4cccc(Cl)c4)c3)[nH]c2n(CCC)c1=O  Adenosine receptor A2b (Homo sapiens, UniProt P29275)  7.74
4  CCCn1c(=O)c2[nH]c(-c3cnn(Cc4cc(F)ccc4Cl)c3)nc2n(CCC)c1=O  Adenosine receptor A2b (Homo sapiens, UniProt P29275)  5.32
5  CCCn1c(=O)c2[nH]c(-c3cnn(Cc4cccc(C)c4)c3)nc2n(CCC)c1=O  Adenosine receptor A2b (Homo sapiens, UniProt P29275)  7.44

[a] CCCCn1c(=O)c2[nH]c(-c3cnn(Cc4ccccc4)c3)nc2n(CCCC)c1=O
[b] CCCn1c(=O)c2[nH]c(-c3cnn(Cc4cccc(C(F)(F)F)c4)c3)nc2n(CCC)c1=O
[c] CCCn1c(=O)c2nc(-c3cnn(CCc4ccccc4)c3)[nH]c2n(CCC)c1=O
Order the 3 compounds from highest to lowest pKi. Please, when replying, give the labels in the order that was requested. b, c, a

Data origin: ChEMBL document CHEMBL1148648
